Target: 5-hydroxytryptamine receptor 2A (Homo sapiens, UniProt P28223)
Sequence (P28223 whole entry): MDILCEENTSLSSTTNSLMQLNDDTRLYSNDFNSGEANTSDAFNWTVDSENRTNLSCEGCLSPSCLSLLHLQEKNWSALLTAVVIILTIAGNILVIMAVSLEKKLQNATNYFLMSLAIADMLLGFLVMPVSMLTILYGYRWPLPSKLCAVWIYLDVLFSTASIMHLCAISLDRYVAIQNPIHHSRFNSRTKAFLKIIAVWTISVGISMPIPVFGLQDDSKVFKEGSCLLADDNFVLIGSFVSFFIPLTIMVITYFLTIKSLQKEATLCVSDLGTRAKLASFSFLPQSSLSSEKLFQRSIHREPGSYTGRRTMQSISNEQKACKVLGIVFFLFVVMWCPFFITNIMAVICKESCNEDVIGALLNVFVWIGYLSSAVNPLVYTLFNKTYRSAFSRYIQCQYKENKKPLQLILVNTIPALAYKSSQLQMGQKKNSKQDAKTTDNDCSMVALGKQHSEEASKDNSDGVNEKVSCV
Experiment: Displacement of [3H]-ketanserin from human cloned 5-hydroxytryptamine 2A receptor expressed in CHO-K1 cells.
Type: cell-based
reported.metric: Ki (nM)

Ask: What value of Ki has been recorded for this entry: COc1cc(OC)c(C(=O)CCCCN2CCC3(CC2)NC(=O)NC3=O)cc1NS(=O)(=O)c1ccc(C(F)(F)F)cc1
Result: 631

Ask: What value of Ki has been recorded for this entry: CN1C[C@@H](NS(=O)(=O)N(C)C)C[C@@H]2c3cccc4c3c(cn4C)C[C@H]21
Result: 20

Ask: What value of Ki has been recorded for this entry: COc1cc(OC)c(C(=O)CCCCN2CCC3(CC2)NC(=O)NC3=O)cc1NS(=O)(=O)c1ccc(OC(F)(F)F)cc1
Result: 1000

(1) COc1cc(OC)c(C(=O)CCCCN2CCC3(CC2)NC(=O)NC3=O)cc1NS(=O)(=O)c1ccc(C(C)C)cc1
(2) COc1cc(OC)c(C(=O)CCCCN2CCC3(CC2)NC(=O)NC3=O)cc1NS(=O)(=O)c1ccccc1
(3) COc1cc(OC)c(C(=O)CCCCN2CCC3(CC2)NC(=O)NC3=O)cc1NS(=O)(=O)c1cccc(Cl)c1
Ask: Highest Ki first, then in falling order down to the smallest. Arrange the labels as the request states and list them.
Result: 2, 3, 1
(2: 3160 nM, 3: 2000 nM, 1: 1260 nM)

###

Molecular target: 5-hydroxytryptamine receptor 2C (Rattus norvegicus, UniProt P08909)
Sequence (P08909 whole entry): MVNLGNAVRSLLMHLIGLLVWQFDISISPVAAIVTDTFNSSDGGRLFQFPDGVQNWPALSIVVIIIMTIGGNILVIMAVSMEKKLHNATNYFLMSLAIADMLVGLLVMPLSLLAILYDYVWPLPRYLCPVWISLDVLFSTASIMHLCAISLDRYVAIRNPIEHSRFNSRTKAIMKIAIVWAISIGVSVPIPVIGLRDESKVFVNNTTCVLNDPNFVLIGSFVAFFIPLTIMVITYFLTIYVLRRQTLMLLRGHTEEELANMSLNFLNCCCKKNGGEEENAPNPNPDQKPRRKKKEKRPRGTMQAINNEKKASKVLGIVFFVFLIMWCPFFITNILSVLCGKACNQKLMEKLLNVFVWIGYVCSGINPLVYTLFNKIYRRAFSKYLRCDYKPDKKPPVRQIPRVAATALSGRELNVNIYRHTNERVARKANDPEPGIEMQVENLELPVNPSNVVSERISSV
Assay: Compound was evaluated for displacement of [3H]mesulergine from cloned rat 5-hydroxytryptamine 2C receptor in transfected CHO-K1 cells.
reported.metric: Ki (nM)

Ask: What value of Ki has been recorded for this entry: COc1ccc(NS(=O)(=O)c2ccccc2)cc1C(=O)CCCCN1CCC2(CC1)NC(=O)NC2=O
Result: 6.31

Ask: What value of Ki has been recorded for this entry: COc1ccc(NS(=O)(=O)c2ccc(Cl)cc2)cc1C(=O)CCCCN1CCC2(CC1)NC(=O)NC2=O
Result: 2

Ask: What value of Ki has been recorded for this entry: COc1cc(OC)c(C(=O)CCCCN2CCC3(CC2)NC(=O)NC3=O)cc1NS(=O)(=O)c1cccc(C(F)(F)F)c1
Result: 100

Ask: What value of Ki has been recorded for this entry: COc1ccc(Oc2ccccc2)cc1C(=O)CCCCN1CCC2(CC1)NC(=O)NC2=O
Result: 3.16

(I) COc1cc(OC)c(C(=O)CCCCN2CCC3(CC2)NC(=O)NC3=O)cc1Cl
(II) COc1cc(OC)c(C(=O)CCCCN2CCC3(CC2)NC(=O)NC3=O)cc1N
Ask: Could you kindly indicate whether I or II has the higher Ki value? Let me know the label of the one you choose.
Result: II

###

5-hydroxytryptamine receptor 2B (Homo sapiens) data, read-out pKi
Sequence (P41595 whole entry): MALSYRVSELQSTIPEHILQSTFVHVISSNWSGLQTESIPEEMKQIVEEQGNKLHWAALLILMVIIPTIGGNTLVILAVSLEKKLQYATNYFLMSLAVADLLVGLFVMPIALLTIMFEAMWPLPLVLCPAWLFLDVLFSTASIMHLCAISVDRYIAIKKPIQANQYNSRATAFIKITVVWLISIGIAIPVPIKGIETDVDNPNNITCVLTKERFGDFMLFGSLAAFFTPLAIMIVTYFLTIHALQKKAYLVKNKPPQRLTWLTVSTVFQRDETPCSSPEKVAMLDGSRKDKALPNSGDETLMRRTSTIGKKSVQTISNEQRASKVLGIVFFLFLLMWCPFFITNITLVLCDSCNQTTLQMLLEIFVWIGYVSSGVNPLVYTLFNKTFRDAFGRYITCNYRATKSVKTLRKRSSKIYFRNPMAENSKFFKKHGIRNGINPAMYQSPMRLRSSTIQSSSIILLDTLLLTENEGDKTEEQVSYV
pKi: −log10 of the molar value.
reported.metric: pKi

Before answering, review these 4 worked examples.
Ask: What value of pKi has been recorded for this entry: COc1cc(OC)c(C(=O)CCCCN2CCC3(CC2)NC(=O)NC3=O)cc1NS(=O)(=O)c1ccccc1
Result: 6.20

Ask: What value of pKi has been recorded for this entry: COc1cc(OC)c(C(=O)CCCCN2CCC3(CC2)NC(=O)NC3=O)cc1NS(=O)(=O)c1ccc(C)cc1
Result: 6.50

Ask: What value of pKi has been recorded for this entry: O=C(CCCN1CCC2(CC1)C(=O)NCN2c1ccccc1)c1ccc(F)cc1
Result: 5.90

Ask: What value of pKi has been recorded for this entry: COc1ccc(S(=O)(=O)Nc2cc(C(=O)CCCCN3CCC4(CC3)NC(=O)NC4=O)c(OC)cc2OC)cc1
Result: 5.90

(A) COc1cc(OC)c(C(=O)CCCCN2CCC3(CC2)NC(=O)NC3=O)cc1NS(=O)(=O)c1ccccc1Cl
(B) COc1cc(OC)c(C(=O)CCCCN2CCC3(CC2)NC(=O)NC3=O)cc1NS(=O)(=O)c1ccc(Cl)cc1
(C) COc1cc(OC)c(C(=O)CCCCN2CCC3(CC2)NC(=O)NC3=O)cc1NS(=O)(=O)c1cccc(Cl)c1
Ask: Highest pKi first, then in falling order down to the smallest. Arrange the labels as the request states and list them.
Result: B, C, A

(A) COc1cc(OC)c(C(=O)CCCCN2CCC3(CC2)NC(=O)NC3=O)cc1NS(=O)(=O)c1ccc(S(N)(=O)=O)cc1
(B) COc1cc(OC)c(C(=O)CCCCN2CCC3(CC2)NC(=O)NC3=O)cc1NS(=O)(=O)c1ccc(C#N)cc1
(C) COc1ccc(OC)c(C(=O)CCCCN2CCC3(CC2)NC(=O)NC3=O)c1
Ask: Put these in order: smallest pKi first, largest last. Arrange the labels as the request states and list them.
Result: A, B, C

###

Molecular target: UniProt P28223
Assay: Compound was evaluated for displacement of [3H]ketanserin from human cloned 5-hydroxytryptamine 2A receptor in transfected CHO-K1 cells
Type: cell-based
pKi: −log10 of the molar value.
reported.metric: pKi

Before answering, review these 3 worked examples.
Ask: API: value(readout= pKi, system= UniProt P28223, query= COc1cc(Cl)c(Cl)cc1C(=O)CCCCN1CCC2(CC1)NC(=O)NC2=O )
Result: 8.20

Ask: API: value(readout= pKi, system= UniProt P28223, query= COc1cc(OC)c(-c2ccccc2)cc1C(=O)CCCCN1CCC2(CC1)NC(=O)NC2=O )
Result: 6.40

Ask: API: value(readout= pKi, system= UniProt P28223, query= COc1ccc(Cl)cc1C(=O)CCCCN1CCC2(CC1)NC(=O)NC2=O )
Result: 7.90

(A) COc1cc(Cl)ccc1C(=O)CCCCN1CCC2(CC1)NC(=O)NC2=O
(B) COc1ccc(OC)c(C(=O)CCCCN2CCC3(CC2)NC(=O)NC3=O)c1
(C) COc1ccc(-c2ccccc2)cc1C(=O)CCCCN1CCC2(CC1)NC(=O)NC2=O
Ask: Highest pKi first, then in falling order down to the smallest. Arrange the labels as the request states and list them.
Result: C, B, A

###

Target: 5-hydroxytryptamine receptor 2A (Homo sapiens)
Test: Displacement of [3H]-ketanserin from human cloned 5-hydroxytryptamine 2A receptor expressed in CHO-K1 cells.
Format: cell-based
reported.metric: Ki (nM)

Ask: What value of Ki has been recorded for this entry: COc1cc(OC)c(C(=O)CCCCN2CCC3(CC2)NC(=O)NC3=O)cc1NS(=O)(=O)c1ccc(C)cc1
Result: 2510

(P) COc1cc(OC)c(C(=O)CCCCN2CCC3(CC2)NC(=O)NC3=O)cc1NS(=O)(=O)c1ccc(C#N)cc1
(Q) COc1ccc(S(=O)(=O)Nc2cc(C(=O)CCCCN3CCC4(CC3)NC(=O)NC4=O)c(OC)cc2OC)cc1
Ask: Could you kindly indicate whether P or Q has the higher Ki value? Let me know the label of the one you choose.
Result: Q

###

Target: 5-hydroxytryptamine receptor 2C (Homo sapiens, UniProt P28335)
Sequence (P28335 whole entry): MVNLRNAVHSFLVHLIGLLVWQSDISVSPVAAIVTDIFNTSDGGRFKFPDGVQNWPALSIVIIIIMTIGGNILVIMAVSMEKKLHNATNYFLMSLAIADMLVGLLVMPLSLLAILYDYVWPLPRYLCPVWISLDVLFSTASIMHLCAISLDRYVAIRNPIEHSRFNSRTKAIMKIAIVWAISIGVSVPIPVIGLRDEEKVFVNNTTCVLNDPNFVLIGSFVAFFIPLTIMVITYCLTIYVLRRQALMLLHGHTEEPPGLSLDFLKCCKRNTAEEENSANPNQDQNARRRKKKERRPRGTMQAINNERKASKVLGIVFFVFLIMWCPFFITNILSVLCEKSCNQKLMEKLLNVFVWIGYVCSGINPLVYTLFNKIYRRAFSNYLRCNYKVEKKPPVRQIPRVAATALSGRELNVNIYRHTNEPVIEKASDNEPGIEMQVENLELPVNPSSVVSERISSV
pKi: −log10 of the molar value.
reported.metric: pKi

Ask: What value of pKi has been recorded for this entry: COc1cc(OC)c(C(=O)CCCCN2CCC3(CC2)NC(=O)NC3=O)cc1NS(=O)(=O)c1ccc(C(C)C)cc1
Result: 8.80

Ask: What value of pKi has been recorded for this entry: COc1cc(OC)c(C(=O)CCCCN2CCC3(CC2)NC(=O)NC3=O)cc1NS(=O)(=O)c1ccc(C(C)=O)cc1
Result: 7.40

Ask: What value of pKi has been recorded for this entry: COc1cc(Cl)c(Cl)cc1C(=O)CCCCN1CCC2(CC1)NC(=O)NC2=O
Result: 9.60

(1) COc1cc(OC)c(C(=O)CCCCN2CCC3(CC2)NC(=O)NC3=O)cc1NS(=O)(=O)c1ccc(Cl)cc1
(2) COc1cc(OC)c(C(=O)CCCCN2CCC3(CC2)NC(=O)NC3=O)cc1NS(=O)(=O)c1ccccc1Cl
(3) COc1ccc(-c2ccccc2)cc1C(=O)CCCCN1CCC2(CC1)NC(=O)NC2=O
Ask: Highest pKi first, then in falling order down to the smallest. Arrange the labels as the request states and list them.
Result: 3, 1, 2
(3: 9.70, 1: 8.30, 2: 6.40)

(a) COc1cc(OC)c(C(=O)CCCCN2CCC3(CC2)NC(=O)NC3=O)cc1NS(=O)(=O)c1ccc(C)cc1
(b) COc1ccc(OC)c(C(=O)CCCCN2CCC3(CC2)NC(=O)NC3=O)c1
Ask: Could you kindly indicate whether a or b has the higher pKi value? Let me know the label of the one you choose.
Result: b
(b: 8.50, a: 8.00)

###

Listing: Ki of selected compounds
Target: 5-hydroxytryptamine receptor 2A (Homo sapiens)
Assay: Displacement of [3H]-ketanserin from human cloned 5-hydroxytryptamine 2A receptor expressed in CHO-K1 cells.
Format: cell-based

Ask: What value of Ki has been recorded for this entry: COc1cc(OC)c(C(=O)CCCCN2CCC3(CC2)NC(=O)NC3=O)cc1NS(=O)(=O)c1ccc(S(N)(=O)=O)cc1
Result: > 10 µM

Ask: What value of Ki has been recorded for this entry: COc1cc(OC)c(C(=O)CCCCN2CCC3(CC2)NC(=O)NC3=O)cc1NS(=O)(=O)c1ccc(Cl)cc1
Result: 0.794 µM

Ask: What value of Ki has been recorded for this entry: COc1cc(OC)c(C(=O)CCCCN2CCC3(CC2)NC(=O)NC3=O)cc1NS(=O)(=O)c1ccc(F)cc1
Result: > 10 µM

Cited source for all entries: ChEMBL document CHEMBL1128924
